# tested on: PRMT5 (Homo sapiens, UniProt O14744)
# Construct: purchased Viva (custom protein)
# Sequence (O14744 whole entry): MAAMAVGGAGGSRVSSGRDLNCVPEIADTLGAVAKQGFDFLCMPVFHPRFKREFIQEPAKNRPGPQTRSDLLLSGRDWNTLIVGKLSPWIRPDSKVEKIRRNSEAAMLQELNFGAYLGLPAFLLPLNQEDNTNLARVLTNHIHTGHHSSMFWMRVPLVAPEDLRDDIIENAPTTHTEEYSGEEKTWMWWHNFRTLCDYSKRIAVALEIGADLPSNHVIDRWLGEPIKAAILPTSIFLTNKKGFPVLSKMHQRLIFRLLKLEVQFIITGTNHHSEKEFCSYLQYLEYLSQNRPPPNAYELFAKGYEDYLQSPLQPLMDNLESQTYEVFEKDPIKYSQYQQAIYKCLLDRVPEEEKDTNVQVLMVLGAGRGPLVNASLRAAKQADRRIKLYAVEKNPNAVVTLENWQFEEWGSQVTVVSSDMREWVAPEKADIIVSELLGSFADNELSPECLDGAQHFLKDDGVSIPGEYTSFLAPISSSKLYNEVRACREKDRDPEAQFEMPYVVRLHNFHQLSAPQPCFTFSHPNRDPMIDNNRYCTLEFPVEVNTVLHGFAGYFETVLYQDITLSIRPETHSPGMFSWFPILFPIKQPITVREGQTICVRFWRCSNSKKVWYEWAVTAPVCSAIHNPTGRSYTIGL
# Sequence (Q9BQA1 whole entry partner): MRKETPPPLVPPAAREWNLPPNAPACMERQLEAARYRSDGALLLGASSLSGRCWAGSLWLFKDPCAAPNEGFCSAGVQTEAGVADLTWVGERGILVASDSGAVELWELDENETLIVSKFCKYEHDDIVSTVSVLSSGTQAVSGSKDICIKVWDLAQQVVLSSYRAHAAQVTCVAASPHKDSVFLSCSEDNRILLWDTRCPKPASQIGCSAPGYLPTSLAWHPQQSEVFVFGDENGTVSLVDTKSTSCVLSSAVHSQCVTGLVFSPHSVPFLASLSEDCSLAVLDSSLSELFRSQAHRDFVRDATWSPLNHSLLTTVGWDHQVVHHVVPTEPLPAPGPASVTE
# test summary: PRMT5 biochemical IC50 assay with no cofactor
# condition context: PRMT5, no cofactor; read-out: No Cofactor/rel IC50
pIC50: −log10 of the molar value.
measurement type: pIC50

# annotated cases, reported pIC50 shown
molecule	pIC50
Cc1cc(NC(=O)C(=O)N2C[C@H](C)CC[C@H]2c2cccc(C(F)(F)F)c2)cnc1N (single isomer, unassigned) [Compound 496]	> 7.30
Cc1cc(NC(=O)C(=O)N2C[C@H](C)CC[C@H]2c2ccc(CC(F)(F)F)cc2)cnc1N (racemic) [Compound 1056]	6.30 to 7.30
C[C@H]1CC[C@H](c2ccc3c(c2)C[C@@H](C)O3)N(C(=O)C(=O)Nc2cncc(C(N)=O)c2)C1 (single isomer, unassigned) [Compound 377]	< 6.30
C[C@@H]1CN(C(=O)C(=O)Nc2cncc(C(N)=O)c2)[C@@H](c2ccccc2)C[C@@H]1O (racemic) [Compound 470]	6.30 to 7.30
Cc1cc(NC(=O)C(=O)N2C[C@H](C)CC[C@H]2c2ccc(S(C)(=O)=O)cc2)cnc1N (single isomer, unassigned) [Compound 938]	< 6.30

# pIC50 of COc1ncc(NC(=O)C(=O)N2C[C@@H](C)CC[C@@H]2c2cc(F)c(F)c(F)c2)cc1C(N)=O (single isomer, unassigned) [Compound 739] = < 6.30

# pIC50 of C[C@@H]1CC[C@@H](c2ccc3nccn3c2)N(C(=O)C(=O)Nc2cncc(C(N)=O)c2)C1 (racemic) [Compound 234] = 6.30 to 7.30
